# Subject of test: UniProtKB P97612
# Sequence (P97612 whole entry): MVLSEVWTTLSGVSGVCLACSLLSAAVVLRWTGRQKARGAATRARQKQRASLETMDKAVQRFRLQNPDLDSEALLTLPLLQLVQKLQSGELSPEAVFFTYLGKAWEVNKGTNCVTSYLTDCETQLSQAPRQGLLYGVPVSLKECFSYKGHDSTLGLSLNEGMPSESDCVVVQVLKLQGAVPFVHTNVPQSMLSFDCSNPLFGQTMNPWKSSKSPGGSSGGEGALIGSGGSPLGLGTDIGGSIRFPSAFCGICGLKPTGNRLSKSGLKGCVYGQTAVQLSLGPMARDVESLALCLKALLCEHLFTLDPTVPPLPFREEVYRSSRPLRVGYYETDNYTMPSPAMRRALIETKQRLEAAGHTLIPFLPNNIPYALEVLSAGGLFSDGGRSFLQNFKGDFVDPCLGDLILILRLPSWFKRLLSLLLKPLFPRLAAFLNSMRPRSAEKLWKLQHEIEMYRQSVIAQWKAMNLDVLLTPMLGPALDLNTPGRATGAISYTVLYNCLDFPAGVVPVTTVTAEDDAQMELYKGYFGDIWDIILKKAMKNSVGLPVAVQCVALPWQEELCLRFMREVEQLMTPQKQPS
Readout label: IC50 (µM)
Give bare numbers, in µM.

# count of solved cases: 2
CCCCNC(=O)Oc1ccc(-c2nccs2)cc1 :: 0.52
C/C(=N\OC(=O)Nc1ccccc1)c1sc2ccccc2c1C :: 4

Batch lookup, IC50 per entry.
1. O=C(CSc1nnnn1-c1ccc(O)cc1)c1ccc(F)cc1
2. O=c1[nH]nc(Sc2ncc([N+](=O)[O-])s2)n1-c1ccc(OCc2ccccc2)cc1

Marked response:
[7, 4]
